assay_details: Inhibition of c-Met-mediated cell migration of human A549 cells by would healing
measurement_kind: pIC50
A value of pIC50 is the negative decimal logarithm of a concentration given in moles per litre.

IN: Please give the measured pIC50 for this compound: Cn1cnc(-c2cc3nccc(Oc4ccc(NC(=O)c5cnn(-c6ccccc6)c5C(F)(F)F)cc4F)c3s2)c1
OUT: 6.40

###

assay_details: Inhibition of c-Met-mediated scattering in HGF-stimulated human DU145 cells
measurement_kind: IC50 (nM)
Numeric only. Scale: nM

IN: Any idea what its IC50 is? The molecule is Cn1cnc(-c2cc3nccc(Oc4ccc(NC(=O)c5cnn(-c6ccccc6)c5C(F)(F)F)cc4F)c3s2)c1
OUT: 2000
